# absorption maximum listing for each entry below
experimental.protocol: solvent given as SMILES
condition: in ClC(Cl)Cl
Reply with just the number (in nm).

Give the measured absorption maximum for CCCCCCCCCCCCCCCC[n+]1ccc(/C=C/c2ccc(N(C)C)cc2)cc1
493

Given c1ccc2c([SiH](c3c4ccccc4cc4ccccc34)c3c4ccccc4cc4ccccc34)c3ccccc3cc2c1 , respond with its absorption maximum.
401

Check the records and state absorption maximum for CCN(CC)c1ccc2c(c1)oc(=O)c1c(-c3ccccc3C(=O)O)c3ccc(=[N+](CC)CC)cc-3oc12
602

Respond only with absorption maximum recorded for Cc1c2c(c(C)c3ccccc13)C1=C2C=CC2Nc3ccccc3NC12 (stereo unspecified)
437

State its absorption maximum for this compound: CCNc1cc2c(cc1C)C(c1ccccc1C(=O)O)=C1CCCC(/C=C/C3=[N+](C)c4ccc5ccccc5c4C3(C)C)=C1O2
722

Let me know recorded absorption maximum for N#Cc1c2nc3ccccn3c2nc2c1nc1ccccn12 , thanks.
425

Provide one value: measured absorption maximum of COc1ccc(-c2nc(-c3ccccc3O)c(-c3ccccc3O)n2-c2ccc(C)cc2)cc1
304

Item CCn1c2ccccc2c2cc(/C=C3\C(=O)c4ccccc4S3(=O)=O)ccc21 : provide absorption maximum
454

Give the reported value of absorption maximum for this record: CC(C)C[Si](C#Cc1c2c(=O)c3ccccc3c2c(C#C[Si](CC(C)C)(CC(C)C)CC(C)C)c2c(=O)c3ccccc3c12)(CC(C)C)CC(C)C
524

Provide absorption maximum value for the following compound: F[B-]1(F)OC(c2cc3c4c(c2)CCCN4CCC3)=Cc2cccc[n+]21
450

Tell me absorption maximum reported for CCCCCCCCN1C(=O)c2ccc3c4c(-c5ccc6c7ccccc7n(-c7ccccc7)c6c5)cc5c6c(cc(-c7ccc8c9ccccc9n(-c9ccccc9)c8c7)c(c7ccc(c2c37)C1=O)c64)C(=O)N(CCCCCCCC)C5=O
567
